Each recorded value in this set is attributed to PubChem BioAssay (NCI).

# protocol: NCI Yeast Anticancer Drug Screen. Data for the sgs1 mgt1 strain (AID 161);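 note: 0% = growth of cultures given vehicle only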
# condition info: S. cerevisiae sgs1 mgt1 strain, at 50.0 µM, active compounds read high
This is part of a sample that, as a whole, favours compounds with a hit. Of some 79,000 tested, about 15% had one in any assay. Where a SMILES comes first, the peptide text is derived from it. [ ]: non-standard residue; d: D form. Hpg = N[CH](C(=O)O)c1ccc(O)cc1
measured attribute: growth inhibition (%)
Please respond with the number in % and leave the unit unwritten.

Request: Report growth inhibition, nothing else, for this molecule: NCCc1ccc(O)c(O)c1
Result: -1.55

Request: Please supply the value of reported growth inhibition for the item Cc1ccccc1/C1=C/CCCCCC1
Result: -10.4

Request: Identify growth inhibition associated with the molecule C[C@]12CCC3c4ccc(OC(=O)c5ccccc5)cc4CC[C@H]3C1CC[C@@H]2OC(=O)C12OC1CCC2=O (stereo partly drawn)
Result: -7.55

Request: Input C#CCC1CCCC/C1=N\Nc1ccc([N+](=O)[O-])cc1[N+](=O)[O-] (stereo not drawn) , output reported growth inhibition.
Result: -4.4

Request: Identify measured growth inhibition corresponding to CN(C)c1ccc(/C=N/NC(=O)c2cnc3ccccc3c2)cc1
Result: -11.3

Request: Give me measured growth inhibition, please, for this molecule: CN(C)CCC(=O)N1CCc2c([nH]c3ccccc23)C1c1cccnc1 (stereo not drawn)
Result: -21.6

Request: Given the molecule Cc1ccc(NC(=S)N(CCC#N)C2CCCCC2)cc1 , write its reported growth inhibition.
Result: 16.2

Request: Assign growth inhibition to the following record: CCOC(=O)c1cnc(=O)n(Cc2ccccc2)c1N
Result: 10.9

Request: Name the recorded growth inhibition of the molecule listed here: Cc1ncc(COP(=O)(O)O)c(C)c1O
Result: -33.5

Request: Return value of growth inhibition for input c1ccc(Cn2cccc2N=Nc2ccccc2)cc1 , no commentary.
Result: 6.55

Request: Please supply the value of reported growth inhibition for the item CSc1cc(=O)n(C2OC(CO)C(O)C2O)c(=O)[nH]1 (stereo not drawn)
Result: 17.6

Request: # return recorded growth inhibition for entry O=C(CC(=O)n1nc(-c2ccccc2)c(N=Nc2ccc([N+](=O)[O-])cc2)c1-c1ccccc1)Nc1ccc(Cl)cc1
Result: 52

Request: Report measured growth inhibition; entry is O=C(CCCCc1ccccc1)NO
Result: 14.4

Request: Respond only with growth inhibition recorded for Nc1nc(Sc2ccc([N+](=O)[O-])c3nonc23)c2[nH]cnc2n1
Result: -20.4

Request: Specify growth inhibition for COc1cccc(C2N(Cc3ccccc3OC)CCCN2Cc2ccccc2OC)c1 and stop.
Result: 29.5

Request: Output growth inhibition of CC(N=Nc1ccccc1)/N=N/c1nn[nH]n1 (stereo not drawn)
Result: -11.6

Request: Give growth inhibition for CC(C)OP(=O)(OC(C)C)/C(N)=N/Nc1ccc([N+](=O)[O-])cc1
Result: -5.6

Request: Tell me its growth inhibition given Cc1cc2c(c(S(=O)(=O)c3ccccc3[N+](=O)[O-])c1)NCCC2 as the entry.
Result: 3.3

Request: State its growth inhibition: CCCCCCC(=O)/C=C/c1ccc(OC)cc1
Result: -14

Request: Input CC(C)CC(N)C(=O)NC(C(=O)O)c1ccc(O)cc1 (stereo not drawn) (H-Leu-[Hpg]-OH; configuration not given here) , output reported growth inhibition.
Result: 3.4

Request: Fill in reported growth inhibition for this entry: BrC1C2=C(c3ccccc31)C(Br)c1ccccc12 (stereo not drawn)
Result: 15.3

Request: Given the molecule COc1ccc(/C(C)=N/NC(=O)CC(=O)N(C(=O)c2ccccc2)c2ccc(C)cc2)cc1 , write its reported growth inhibition.
Result: -6.5

Request: Give recorded growth inhibition. O=CC(Cc1ccccc1)C(=O)CCc1ccccc1.[Cu+2] (stereo not drawn)
Result: 4.95
